Relative Potentiation for GABAA2 overview
Target System: GABAA receptor α2β3γ2 (Homo sapiens, UniProt P18507+P47869)
Construct: expressed in transfected cells; host or cells: Xenopus laevis oocytes injected with cRNA
Sequence (P47869 29-451): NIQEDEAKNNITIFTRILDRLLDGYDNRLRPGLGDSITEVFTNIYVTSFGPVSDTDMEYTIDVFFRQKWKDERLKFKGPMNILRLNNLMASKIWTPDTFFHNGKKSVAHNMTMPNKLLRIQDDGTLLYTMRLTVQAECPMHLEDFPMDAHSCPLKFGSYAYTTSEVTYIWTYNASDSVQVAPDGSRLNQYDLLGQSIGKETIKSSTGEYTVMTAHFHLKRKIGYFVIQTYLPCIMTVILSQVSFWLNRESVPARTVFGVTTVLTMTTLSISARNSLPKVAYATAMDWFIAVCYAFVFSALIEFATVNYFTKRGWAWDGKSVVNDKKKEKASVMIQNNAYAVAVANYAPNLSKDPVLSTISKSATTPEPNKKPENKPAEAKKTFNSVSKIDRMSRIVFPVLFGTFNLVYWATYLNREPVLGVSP
Sequence (P28472 26-473 partner): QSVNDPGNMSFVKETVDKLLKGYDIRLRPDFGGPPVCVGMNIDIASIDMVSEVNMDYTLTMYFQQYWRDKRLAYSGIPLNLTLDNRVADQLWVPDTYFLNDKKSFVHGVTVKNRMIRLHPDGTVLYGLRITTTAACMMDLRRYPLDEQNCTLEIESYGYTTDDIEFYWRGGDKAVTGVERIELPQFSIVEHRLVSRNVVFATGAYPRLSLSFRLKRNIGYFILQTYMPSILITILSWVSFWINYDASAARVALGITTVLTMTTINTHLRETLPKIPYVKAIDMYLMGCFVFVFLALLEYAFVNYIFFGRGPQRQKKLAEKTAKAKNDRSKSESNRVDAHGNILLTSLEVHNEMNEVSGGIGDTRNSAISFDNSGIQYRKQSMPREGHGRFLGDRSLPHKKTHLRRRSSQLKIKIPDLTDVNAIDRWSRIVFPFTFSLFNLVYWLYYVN
Sequence (P18507 40-475): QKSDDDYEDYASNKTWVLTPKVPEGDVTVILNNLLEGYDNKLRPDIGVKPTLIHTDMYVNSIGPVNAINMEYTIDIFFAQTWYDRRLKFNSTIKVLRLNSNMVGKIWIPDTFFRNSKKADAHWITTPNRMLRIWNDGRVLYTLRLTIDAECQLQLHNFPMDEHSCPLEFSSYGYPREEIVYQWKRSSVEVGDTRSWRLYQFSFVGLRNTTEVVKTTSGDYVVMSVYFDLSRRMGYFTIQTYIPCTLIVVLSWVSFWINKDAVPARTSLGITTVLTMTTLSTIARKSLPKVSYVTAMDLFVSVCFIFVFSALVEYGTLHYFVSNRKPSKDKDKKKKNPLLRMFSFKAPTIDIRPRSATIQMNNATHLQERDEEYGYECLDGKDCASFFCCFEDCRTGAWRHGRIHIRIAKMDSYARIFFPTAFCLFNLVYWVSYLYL
Protocol Summary: Two-electrode voltage-clamp potentiation of GABA EC10 current in Xenopus oocytes, GABAA2
Assay type: cell-based
Applied Conditions: percentage potentiation of GABA EC10 current divided by that of diazepam

>  <Compound String>
COc1ccc(CN2Cc3nc4c(-c5c(F)cccc5OC)cccc4c(N)c3C2=O)cc1

>  <Target System>
GABAA receptor α2β3γ2 (Homo sapiens, UniProt P18507+P47869)

>  <Relative Potentiation for GABAA2>
0.2

$$$$

Quick check: Relative Potentiation for GABAA2 of COc1ccccc1-c1c(F)ccc2c(N)c3c(nc12)CN(C1CC1)C3=O ?
0.2

What value of Relative Potentiation for GABAA2 has been recorded for this entry: CCN1Cc2nc3c(-c4ccc(F)cc4OC)cccc3c(N)c2C1=O
0.2

Fill in the blank: the reported Relative Potentiation for GABAA2 of COc1ccc(OC)c(-c2cccc3c(N)c4c(nc23)CN(Cc2ccc(OC)c(OC)c2)C4=O)c1 is ____.
0.19

Param item = COc1cccc(F)c1-c1cccc2c(N)c3c(nc12)CN(C(C)C)C3=O ; retrieve measured Relative Potentiation for GABAA2.
0.15

If you can, please state the reported Relative Potentiation for GABAA2 value of N#Cc1cc(F)ccc1-c1cccc2c(N)c3c(nc12)CN(C1CCC1)C3=O .
0.11
